# PROTOCOL: log Pow* calculated by Formula 2 from log Pow and the polarity parameter P′(x) of the ethanol/water mixture
# CONDITION NOTES: solvent ethanol, proportion 70%
EXPERIMENTAL READOUT: log Pow* (P′ 70%)

C/C=C/C(=O)C1=C(C)C=CCC1(C)C [beta-damascenone]: 3.57
SCc1ccco1 [Furfurylthiol-2]: −0.02
CS [Methylmercaptan]: −4.95
CCCCCCC1CCC(=O)O1 (stereo not shown) [gamma-decalactone]: 0.85
CC/C=C\CC1CCCC(=O)O1 (stereo not shown) [Jasmine lactone]: 1.00
CCC/C=C/C=O [2E-hexenal]: −0.65
CC1=CCC(C(C)(C)S)CC1 (stereo not shown) [p-menthenethiol-1,8]: 3.14
c1ccc2[nH]ccc2c1 [Indole]: 0.44
CCC(C)CO (stereo not shown) [2-mebutanol, 2-methylbutanol]: −1.53
O=Cc1ccccc1 [Benzaldehyde]: −0.58
